assay: HILIC, Merck SeQuant ZIC-pHILIC, 150 × 2.1 mm, 5 µm, 40 °C, 0.3 mL/min, estimated dead time 1.1 min; A: acetonitrile; B: water + 2.8 mM ammonium formate, pH 9; gradient (min/%B) 0/5 1/5 10/51 13/51 13.1/5 20/5; conditions: stereoisomer not certain
READOUT_NAME: LC retention time (min)

For orientation, consider the following solved cases.
[in] Item NC(=O)c1ccc[n+](C2OC(COP(=O)(O)OP(=O)([O-])OCC3OC(n4cnc5c(N)ncnc54)C(O)C3O)C(O)C2O)c1 (stereo not drawn) [BETA-NICOTINAMIDE ADENINE DINUCLEOTIDE] has what recorded LC retention time?
[out] 8.52

[in] Try `CSc1ncnc2nc[nH]c12` next.
[out] 2.09

[in] Try O=c1[nH]c(=O)c2[nH]c(=O)[nH]c2[nH]1 [URATE] next.
[out] 8.13

[in] Try `O=c1[nH]c(=O)c2[nH]cnc2[nH]1` next.
[out] 6.53

[in] Try CC(=O)NC(CCC(=O)O)C(=O)O (stereo unspecified) [N-ACETYLGLUTAMATE] next.
[out] 8.75

A. O=c1ccn(C2OC(COP(=O)(O)O)C(O)C2O)c(=O)[nH]1 (stereo unspecified) [URIDINE MONOPHOSPHATE]
B. O=C(O)CCCCCCC(=O)O [SUBERATE]
C. COC(=O)c1ccc(O)c(OC)c1 [METHYL VANILLATE]
[in] Arrange items by their LC retention time values in increasing order. // ordering of labels required in reply
[out] C, B, A
(C: 1.47 min, B: 5.2 min, A: 8.67 min)
